Test: Acute toxicity in mouse measured following single po dose
Assay type: organism-based
Details: in vivo
As shown below, each of these molecules has a reported LD50 value.

[
  {
    "molecule": "Cc1cc(C)n2ncc(I)c2n1",
    "comparison-sign": ">",
    "LD50 (mg/kg)": 3000
  },
  {
    "molecule": "CNC1=Nc2ccc(Cl)cc2C(c2ccccc2)=[N+]([O-])C1 [CHLORDIAZEPOXIDE]",
    "comparison-sign": "=",
    "LD50 (mg/kg)": 939
  },
  {
    "molecule": "Cc1cc(C)n2ncc(Br)c2n1",
    "comparison-sign": "=",
    "LD50 (mg/kg)": 1350
  },
  {
    "molecule": "Cc1cc(C)n2ncc(Cl)c2n1",
    "comparison-sign": "=",
    "LD50 (mg/kg)": 599
  },
  {
    "molecule": "Cc1cc(C)n2nccc2n1",
    "comparison-sign": "=",
    "LD50 (mg/kg)": 928
  }
]

====

Tested on: Rattus norvegicus
Experiment: Antipsychotic activity in ip dosed rat assessed as reduction in avoidance responding by Sidman avoidance test
Format: functional
measurement-type: log10 of ED50 (log10 of the value in mg/kg)

[
  {
    "compound": "Cc1cc(C)n2nccc2n1",
    "log10 of ED50": 1.78
  },
  {
    "compound": "CN(C)CCCN1c2ccccc2Sc2ccc(Cl)cc21 [CHLORPROMAZINE]",
    "log10 of ED50": 0.57
  },
  {
    "compound": "CN1C(=O)CN=C(c2ccccc2)c2cc(Cl)ccc21 [DIAZEPAM]",
    "log10 of ED50": 1.05
  },
  {
    "compound": "CNC1=Nc2ccc(Cl)cc2C(c2ccccc2)=[N+]([O-])C1 [CHLORDIAZEPOXIDE]",
    "log10 of ED50": 1.16
  },
  {
    "compound": "Cc1cc(C)n2ncc(Cl)c2n1",
    "log10 of ED50": 1.50
  },
  {
    "compound": "Cc1cc(C)n2ncc(I)c2n1",
    "log10 of ED50": 1.59
  },
  {
    "compound": "Cc1cc(C)n2ncc(F)c2n1",
    "log10 of ED50": 1.60
  },
  {
    "compound": "Cc1cc(C)n2ncc(Br)c2n1",
    "log10 of ED50": 1.47
  }
]

====

Test: Acute toxicity in mouse measured following single ip dose
Assay type: organism-based
Details: in vivo
As shown below, each of these compounds has a reported LD50 value.

[
  {
    "compound": "Cc1cc(C)n2ncc(Br)c2n1",
    "unit-abbreviation": "mg/kg",
    "LD50": 458
  },
  {
    "compound": "Cc1cc(C)n2ncc(Cl)c2n1",
    "unit-abbreviation": "mg/kg",
    "LD50": 369
  },
  {
    "compound": "Cc1cc(C)n2nccc2n1",
    "unit-abbreviation": "mg/kg",
    "LD50": 537
  },
  {
    "compound": "CNC1=Nc2ccc(Cl)cc2C(c2ccccc2)=[N+]([O-])C1 [CHLORDIAZEPOXIDE]",
    "unit-abbreviation": "mg/kg",
    "LD50": 183
  },
  {
    "compound": "Cc1cc(C)n2ncc(I)c2n1",
    "unit-abbreviation": "mg/kg",
    "LD50": 612
  }
]
